FYI, the data here is from patent US20250214986A1.

assay: Pharmacokinetic assay in mice; format: in vivo, male ICR mice; conditions: male, ICR, mouse, plasma; mice, oral intragastric administration, 10 mg/kg; read-out: T½ (converted)
Assignment: determine reported half-life for the given compounds.
One number for each entry, in h.

Cc1cnc(-c2cc(O[C@@H]3CCOC3)cc(C(=O)N[C@H](C)c3cnc(C(F)(F)F)nc3)c2)s1 [Control compound 1, reference compound] = 2.41

Read the next record carefully.
Inquiry: Could you tell me which half-life is on file for Cc1cnc(-c2cc(O[C@@H](C)[C@@H](C)O)cc(C(=O)N[C@H](C)c3cnc(C(F)(F)F)nc3)c2F)s1 [Compound of formula I] ?
Reply text: 2.89
